Ki values, listed per item
Target: δ opioid receptor (Rattus norvegicus)
Construct: Male Sprague-Dawley rats (300-350 g) from the Canadian Breeding Laboratories were decapitated and after removal of the cerebellum the brains were homogenized; from tissue; host or cells: rat brain (without cerebellum) membranes, male Sprague-Dawley
Assay: δ opioid receptor binding assay, displacement of δ-selective radioligand from rat brain membranes
Peptide text beside a SMILES is read from it.
# number only, unit nM dropped from output

Lookup result for NC(=O)[C@H](CO)NC(=O)[C@@H]1CCCN1C(=O)[C@H](Cc1ccc(O)cc1)NC(=O)[C@H](Cc1ccccc1)NC(=O)[C@H](Cc1ccccc1)NC(=O)[C@@H]1Cc2ccccc2CN1C(=O)[C@@H](N)Cc1ccc(O)cc1 [HTyrTicPhePheTyrProSerNH2, H-Tyr-Tic-Phe-Phe-Tyr-Pro-Ser-NH2] (HELM PEPTIDE1{Y.[Tic].F.F.Y.P.S.[am]}$$$$V2.0) ; measured Ki: 0.9

Entry under test: CCCCCCN[C@@H](Cc1ccc(O)cc1)C(=O)N1Cc2ccccc2C[C@H]1C(=O)N[C@@H](Cc1ccccc1)C(=O)N[C@@H](Cc1ccccc1)C(=O)O . Its Ki was 0.951

Lookup result for N[C@@H](Cc1ccc(O)cc1)C(=O)N1Cc2ccccc2C[C@H]1C(=O)N[C@@H](Cc1c[nH]cn1)C(=O)N[C@@H](Cc1ccccc1)C(=O)O [HTyrTicHisPheOH, H-Tyr-Tic-His-Phe-OH] (HELM PEPTIDE1{Y.[Tic].H.F}$$$$V2.0) ; measured Ki: 1.48

====

Target: δ opioid receptors (Mus musculus, UniProt P32300)
Construct: Bioassays Using Isolated Organ Preparations; from tissue; host or cells: mouse vas deferens (isolated organ)
Sequence (P32300 whole entry): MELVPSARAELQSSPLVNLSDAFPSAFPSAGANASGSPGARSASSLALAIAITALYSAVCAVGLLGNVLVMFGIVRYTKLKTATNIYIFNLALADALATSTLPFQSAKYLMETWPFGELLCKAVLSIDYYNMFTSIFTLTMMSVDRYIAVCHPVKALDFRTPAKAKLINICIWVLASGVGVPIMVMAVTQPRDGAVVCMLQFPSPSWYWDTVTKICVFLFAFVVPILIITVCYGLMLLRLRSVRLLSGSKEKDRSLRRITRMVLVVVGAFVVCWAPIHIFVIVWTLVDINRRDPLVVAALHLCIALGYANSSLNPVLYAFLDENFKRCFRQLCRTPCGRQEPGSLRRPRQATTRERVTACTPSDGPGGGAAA
Experiment: Mouse vas deferens (MVD) bioassay, antagonism of electrically evoked contraction inhibition by δ-selective agonists
Type: tissue-based
Conditions: Ke (nM) against DPDPE, MVD assay; δ agonist DPDPE; means of 3-8 determinations
Peptide text beside a SMILES is read from it.
EXPERIMENTAL_READOUT: log10 Kb (log10 of the value in nM)
Log scale reminder: Kb in nM, then log10 taken.

The molecule listed as NC(=O)[C@H](Cc1ccccc1)NC(=O)[C@@H]1Cc2ccccc2CN1C(=O)[C@@H](N)Cc1ccc(O)cc1 [HTyrTicPheNH2, H-Tyr-Tic-Phe-NH2] (HELM PEPTIDE1{Y.[Tic].F.[am]}$$$$V2.0) has a reported log10 Kb of 1.99

Please fill in: log10 Kb reported for N[C@@H](Cc1ccc(O)cc1)C(=O)N1Cc2ccccc2C[C@H]1C(=O)NC1(C(=O)N[C@@H](Cc2ccccc2)C(=O)O)CCc2ccccc2C1 (stereo partly drawn) [HTyrTicAtcPheOH, H-Tyr-Tic-Atc-Phe-OH] (HELM PEPTIDE1{Y.[Tic].[O=C(C1(N[*:1])CCc2ccccc2C1)[*:2]].F}$$$$V2.0) = 0.27

Entry CN[C@@H](Cc1ccc(O)cc1)C(=O)N1Cc2ccccc2C[C@H]1CN[C@@H](CCc1ccccc1)C(=O)N[C@@H](Cc1ccccc1)C(=O)O [Tyr(NMe)-Tic.psi.[CH2NH]HfePheOH, Tyr(NMe)-Tic.PSI.[CH2 --NH]Hfe-Phe-OH] — recorded log10 Kb = -0.04

Noted for CCN(CC)[C@@H](Cc1ccc(O)cc1)C(=O)N1Cc2ccccc2C[C@H]1C(=O)N[C@@H](Cc1ccccc1)C(=O)N[C@@H](Cc1ccccc1)C(=O)O : its log10 Kb reads -0.05

The molecule identified as NC(=O)[C@H](CO)NC(=O)[C@@H]1CCCN1C(=O)[C@H](Cc1ccc(O)cc1)NC(=O)[C@H](Cc1ccc([N+](=O)[O-])cc1)NC(=O)[C@H](Cc1c[nH]c2ccccc12)NC(=O)[C@@H]1Cc2ccccc2CN1C(=O)[C@@H](N)Cc1ccc(O)cc1 [HTyrTicTrpPhe(pNO2)TyrProSerNH2] (HELM PEPTIDE1{Y.[Tic].W.[O=C([C@H](Cc1ccc([N+](=O)[O-])cc1)N[*:1])[*:2]].Y.P.S.[am]}$$$$V2.0) registered its log10 Kb at 0.39

// N[C@@H](Cc1ccc(O)cc1)C(=O)N1Cc2ccccc2C[C@H]1C(=O)N[C@@H](Cc1c[nH]c2ccccc12)C(=O)N[C@@H](Cc1ccccc1)C(=O)O [HTyrTicTrpPheOH, H-Tyr-Tic-Trp-Phe-OH] (HELM PEPTIDE1{Y.[Tic].W.F}$$$$V2.0) : log10 Kb value = 0.41

Form: molecule = N[C@@H](Cc1ccc(O)cc1)C(=O)N1Cc2ccccc2C[C@H]1C(=O)N[C@@H](Cc1c[nH]cn1)C(=O)N[C@@H](Cc1ccccc1)C(=O)O [HTyrTicHisPheOH, H-Tyr-Tic-His-Phe-OH] (HELM PEPTIDE1{Y.[Tic].H.F}$$$$V2.0) ; log10 Kb = 1.26

====

Target: μ opioid receptor (Rattus norvegicus)
Construct: Male Sprague-Dawley rats (300-350 g) from the Canadian Breeding Laboratories were decapitated and after removal of the cerebellum the brains were homogenized; from tissue; host or cells: rat brain (without cerebellum) membranes, male Sprague-Dawley
Sequence (P33535 whole entry): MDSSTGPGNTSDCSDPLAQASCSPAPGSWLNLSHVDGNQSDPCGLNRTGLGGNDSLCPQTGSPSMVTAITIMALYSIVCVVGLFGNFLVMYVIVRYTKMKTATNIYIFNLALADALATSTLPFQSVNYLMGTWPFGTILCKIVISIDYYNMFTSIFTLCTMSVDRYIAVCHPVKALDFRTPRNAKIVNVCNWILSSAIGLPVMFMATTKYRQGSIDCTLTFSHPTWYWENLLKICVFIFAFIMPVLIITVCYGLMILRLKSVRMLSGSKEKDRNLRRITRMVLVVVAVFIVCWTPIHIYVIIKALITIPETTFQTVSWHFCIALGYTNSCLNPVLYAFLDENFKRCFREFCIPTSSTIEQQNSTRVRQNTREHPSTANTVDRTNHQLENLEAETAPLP
Experiment: μ opioid receptor binding assay, displacement of [3H]DAMGO from rat brain membranes
Peptide text beside a SMILES is read from it.
EXPERIMENTAL_READOUT: pKi
Note on units: pKi is unitless, being -log10 of a concentration expressed in mol/L.

MOLECULE	pKi
CN[C@@H](Cc1ccc(O)cc1)C(=O)N1Cc2ccccc2C[C@H]1C(=O)N[C@@H](Cc1ccccc1)C(=O)N[C@@H](Cc1ccccc1)C(=O)O [Tyr(N^α Me)-TicPhePheOH, Tyr(N^α Me)-Tic-Phe-Phe-OH] (HELM PEPTIDE1{[meY].[Tic].F.F}$$$$V2.0)	4.87
CCCCCCN[C@@H](Cc1ccc(O)cc1)C(=O)N1Cc2ccccc2C[C@H]1C(=O)N[C@@H](Cc1ccccc1)C(=O)N[C@@H](Cc1ccccc1)C(=O)O	5.97
Cc1cc(O)cc(C)c1C[C@H](N)C(=O)N1Cc2ccccc2C[C@H]1CN[C@@H](Cc1ccccc1)C(=O)N[C@@H](Cc1ccccc1)C(=O)O [HDmtTic.psi.[CH2NH]PhePheOH, H-Dmt-Tic.PSI.[CH2 --NH]Phe-Phe-OH]	7.02
N[C@@H](Cc1ccc(O)cc1)C(=O)N1Cc2ccccc2C[C@H]1C(=O)N[C@@H](Cc1cccc2ccccc12)C(=O)N[C@@H](Cc1ccccc1)C(=O)O [HTyrTic-1-NalPheOH, H-Tyr-Tic-1-Nal-Phe-OH] (HELM PEPTIDE1{Y.[Tic].[O=C([C@H](Cc1cccc2ccccc12)N[*:1])[*:2]].F}$$$$V2.0)	5.95

GET /value?item= NC(=O)[C@H](CO)NC(=O)[C@@H]1CCCN1C(=O)[C@H](Cc1ccc(O)cc1)NC(=O)[C@H](Cc1ccccc1)NC(=O)[C@H](Cc1ccccc1)NC(=O)[C@@H]1Cc2ccccc2CN1C(=O)[C@@H](N)Cc1ccc(O)cc1 [HTyrTicPhePheTyrProSerNH2, H-Tyr-Tic-Phe-Phe-Tyr-Pro-Ser-NH2] (HELM PEPTIDE1{Y.[Tic].F.F.Y.P.S.[am]}$$$$V2.0) &field=pKi returns 6.18

Data point: N[C@@H](Cc1ccc(O)cc1)C(=O)N1Cc2ccccc2C[C@H]1C(=O)N[C@@H](Cc1c[nH]cn1)C(=O)N[C@@H](Cc1ccccc1)C(=O)O [HTyrTicHisPheOH, H-Tyr-Tic-His-Phe-OH] (HELM PEPTIDE1{Y.[Tic].H.F}$$$$V2.0) ; pKi = 4.77

====

Biological target: δ opioid receptor (Rattus norvegicus, UniProt P33533)
Construct: Male Sprague-Dawley rats (300-350 g) from the Canadian Breeding Laboratories were decapitated and after removal of the cerebellum the brains were homogenized; from tissue; host or cells: rat brain (without cerebellum) membranes, male Sprague-Dawley
Sequence (P33533 whole entry): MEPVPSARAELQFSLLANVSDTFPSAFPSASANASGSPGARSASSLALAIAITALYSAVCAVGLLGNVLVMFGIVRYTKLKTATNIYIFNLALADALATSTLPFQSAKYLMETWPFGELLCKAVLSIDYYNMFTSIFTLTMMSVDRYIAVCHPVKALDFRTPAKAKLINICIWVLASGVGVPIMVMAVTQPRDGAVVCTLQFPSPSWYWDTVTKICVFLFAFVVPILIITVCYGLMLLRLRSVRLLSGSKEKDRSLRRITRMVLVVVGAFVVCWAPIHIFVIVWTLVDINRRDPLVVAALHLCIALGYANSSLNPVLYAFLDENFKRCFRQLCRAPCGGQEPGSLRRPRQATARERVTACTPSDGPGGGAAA
Test: δ opioid receptor binding assay, displacement of δ-selective radioligand from rat brain membranes
Conditions: δ-selectivity ratio
Peptide text beside a SMILES is read from it.
Measured Ki^μ /Ki^δ by item
Write the value as a bare number.

MOLECULE	TARGET_OR_TEST_SYSTEM	OBSERVED_VALUE
N=C(N)NCCC[C@H](N)C(=O)N[C@@H](Cc1ccc(O)cc1)C(=O)N1Cc2ccccc2C[C@H]1C(=O)N[C@@H](Cc1ccccc1)C(=O)N[C@@H](Cc1ccccc1)C(N)=O [HArgTyrTicPhePheNH2, H-Arg-Tyr-Tic-Phe-Phe-NH2] (HELM PEPTIDE1{R.Y.[Tic].F.F.[am]}$$$$V2.0)	δ opioid receptor (Rattus norvegicus, UniProt P33533)	22.3
CC(C)[C@H](NC(=O)[C@H](Cc1ccccc1)NC(=O)[C@H](Cc1ccccc1)NC(=O)[C@@H]1Cc2ccccc2CN1C(=O)[C@@H](N)Cc1ccc(O)cc1)C(=O)N[C@H](C(=O)NCC(N)=O)C(C)C [HTyrTicPhePheValValGlyNH2, H-Tyr-Tic-Phe-Phe-Val-Val-Gly-NH2] (HELM PEPTIDE1{Y.[Tic].F.F.V.V.G.[am]}$$$$V2.0)	δ opioid receptor (Rattus norvegicus, UniProt P33533)	2300

Ki^μ /Ki^δ measured on NC(=O)[C@H](Cc1ccccc1)NC(=O)[C@@H]1Cc2ccccc2CN1C(=O)[C@@H](N)Cc1ccc(O)cc1 [HTyrTicPheNH2, H-Tyr-Tic-Phe-NH2] (HELM PEPTIDE1{Y.[Tic].F.[am]}$$$$V2.0) = 52.0
